Molecular target: S1P1 receptor (Homo sapiens, UniProt P21453)
Construct: membranes
Sequence (P21453 whole entry): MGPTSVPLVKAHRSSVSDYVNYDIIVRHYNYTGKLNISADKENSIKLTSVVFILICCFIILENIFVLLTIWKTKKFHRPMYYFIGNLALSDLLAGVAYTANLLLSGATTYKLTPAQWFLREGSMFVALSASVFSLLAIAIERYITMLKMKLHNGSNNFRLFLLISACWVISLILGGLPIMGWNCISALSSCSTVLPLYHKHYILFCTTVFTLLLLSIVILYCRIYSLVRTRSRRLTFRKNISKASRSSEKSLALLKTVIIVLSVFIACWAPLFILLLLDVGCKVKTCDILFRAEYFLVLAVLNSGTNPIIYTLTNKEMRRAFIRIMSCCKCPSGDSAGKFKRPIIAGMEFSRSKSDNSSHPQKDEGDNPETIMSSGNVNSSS
Assay: S1P1 GTPγS binding assay
Conditions: membranes of Rat Basophilic Leukaemia cells (RBL) stably expressing S1P1 receptor, 35S-GTPγS
Procedure: Rat Basophilic Leukaemia cells (RBL) stably expressing S1P1 receptor were grown to 80% confluency before being harvested into 10 ml Phospho-Buffered Saline (PBS) and centrifuged at 1200 rpm for 5 minutes. After removal of the supernatant, the pellet was re-suspended and homogenised in 20 volumes assay buffer (20 mM HEPES pH 7.4, 100 mM NaCl, 10 mM MgCl2.6H2O, 10 μM GDP Saponin 10 μg/ml). The membrane suspension was further centrifuged for 20 minutes at 20,000 rpm re-homogenised and spun again. […]
Quantity: EC50

-- ask Item `CC(C)Oc1ccc(-c2nc(-c3ccc4c(cnn4CCC(=O)O)c3)no2)cc1Cl` has what recorded EC50?
-- reply < 1000 nM

Source of measurements: patent US8324254B2
